System: MHH-CALL-3;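 note: ALL cell lines in 384-well plates, five doses spanning 10,000-fold, each plate scaled between vehicle and 100 µmol/L benzalkonium chloride controls, sDSS an adapted area-under-curve metric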
Experiment: selective drug sensitivity score (sDSS, relative to normal bone marrow) (sDSS (score)); higher = more potent and effective on the cell line relative to normal bone marrow cells
Conditions: 72 h
Recorded metric: selective drug sensitivity score

>>> assay_result("O=C(Nc1ccc2[nH]nc(-c3ccncc3)c2c1)[C@@H]1CCN(CC(=O)N2CCN(c3ccc(-c4ncccn4)cc3)CC2)C1 (top concentration 10000 nM)")
7.16
>>> assay_result("CC(=O)O[C@@]12CO[C@@H]1C[C@H](O)[C@@]1(C)C(=O)[C@H](O)C3=C(C)[C@@H](OC(=O)[C@H](O)[C@@H](NC(=O)OC(C)(C)C)c4ccccc4)C[C@@](O)([C@@H](OC(=O)c4ccccc4)[C@H]21)C3(C)C [Docetaxel] (top concentration 1000 nM)")
7.3
>>> assay_result("CC(O)(CS(=O)(=O)c1ccc(F)cc1)C(=O)Nc1ccc(C#N)c(C(F)(F)F)c1 (stereo not given) [Bicalutamide] (top concentration 10000 nM)")
-1.68
>>> assay_result("Cc1c2oc3c(C)ccc(C(=O)N[C@@H]4C(=O)N[C@H](C(C)C)C(=O)N5CCC[C@H]5C(=O)N(C)CC(=O)N(C)[C@@H](C(C)C)C(=O)O[C@@H]4C)c3nc-2c(C(=O)N[C@@H]2C(=O)N[C@H](C(C)C)C(=O)N3CCC[C@H]3C(=O)N(C)CC(=O)N(C)[C@@H](C(C)C)C(=O)O[C@@H]2C)c(N)c1=O [Dactinomycin] (top concentration 1000 nM)")
15.7
>>> assay_result("CCCCOc1nc(N)c2c(n1)N(Cc1cccc(CN3CCCC3)c1)CC(=O)N2 [Vesatolimod] (top concentration 10000 nM)")
-3.52
>>> assay_result("COCC[n+]1c2c(n(Cc3cnccn3)c1C)C(=O)c1ccccc1C2=O [Sepantronium_bromide] (top concentration 10000 nM)")
22.3
>>> assay_result("Cn1cc(CNCC2CCN(c3ncc(C(=O)NO)cn3)CC2)c2ccccc21 [Quisinostat] (top concentration 1000 nM)")
17
>>> assay_result("NC1(C(=O)N[C@@H](CCO)c2ccc(Cl)cc2)CCN(c2ncnc3[nH]ccc23)CC1 [AZD-5363] (top concentration 10000 nM)")
6.72
>>> assay_result("CC(C)Oc1ccc(-c2nn([C@@H](C)c3oc4ccc(F)cc4c(=O)c3-c3cccc(F)c3)c3ncnc(N)c23)cc1F [TGR-1202] (top concentration 2500 nM)")
-2.56
>>> assay_result("C=CC[C@@H]1/C=C(\\C)C[C@H](C)C[C@H](OC)[C@H]2O[C@@](O)(C(=O)C(=O)N3CCCC[C@H]3C(=O)O[C@H](/C(C)=C/[C@@H]3CC[C@@H](O)[C@H](OC)C3)[C@H](C)[C@@H](O)CC1=O)[C@H](C)C[C@@H]2OC [Tacrolimus] (top concentration 10000 nM)")
33.9
